- Organism: Rattus norvegicus
- experimentNotes: Open TG-GATES - Regimen: Single
- Format: toxicity, organism-based, Sprague-Dawley
- Set-up: regimen Single, gender Male, age 6 weeks
- measurementConditions: in vivo, po, 0 mg/kg, 3 h, tissue Blood, route gavage, dose level Control
Give measured APTT for each item. Keep answers brief.
One number for each entry, in s.

Solved cases (3 shown):
Cc1nnc2n1-c1ccc(Cl)cc1C(c1ccccc1Cl)=NC2: 20.7
Nc1c2c(nc3ccccc13)CCCC2: 19.7
CCOc1ccc(NC(C)=O)cc1: 17.4

Can you give me APTT for all of these, one by one?
1. CN/C(=N/CCSCc1nc[nH]c1C)NC#N
2. Brc1ccccc1
3. CC(C)NNC(=O)c1ccncc1

1. 18.4
2. 15.7
3. 21.1

Count: 3. Required value per item: APTT.
1. CN1C(=O)CCS(=O)(=O)C1c1ccc(Cl)cc1 (stereo not drawn)
2. CNC(=C[N+](=O)[O-])NCCSCc1ccc(CN(C)C)o1
3. CCCc1cc(=O)[nH]c(=S)[nH]1

1. 17
2. 20.3
3. 15.8

Could I get APTT for every one of these entries?
1. O=C(OC[C@H]1O[C@@H](OC(=O)c2cc(O)c(O)c(OC(=O)c3cc(O)c(O)c(O)c3)c2)[C@H](OC(=O)c2cc(O)c(O)c(OC(=O)c3cc(O)c(O)c(O)c3)c2)[C@@H](OC(=O)c2cc(O)c(O)c(OC(=O)c3cc(O)c(O)c(O)c3)c2)[C@@H]1OC(=O)c1cc(O)c(O)c(OC(=O)c2cc(O)c(O)c(O)c2)c1)c1cc(O)c(O)c(OC(=O)c2cc(O)c(O)c(O)c2)c1
2. NC1=NC(=O)C(c2ccccc2)O1 (stereo not drawn)
3. COC(=O)C1=C(C)NC(C)=C(C(=O)OC)C1c1ccccc1[N+](=O)[O-]
4. CN(C)CCC(c1ccc(Cl)cc1)c1ccccn1 (stereo not drawn)

16.1
17.2
16.4
18.8
